compounds and their reported activity change, negative = inhibition
- Assay protocol: AP1 Signaling Pathway (AID 357);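 note: ME-180 reporter cells stimulated with EGF at its EC50 level; % is set by controls: 0 for no effect and ±100 for the full control effect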
- Experimental setup: ME-180 AP-1-bla reporter, EGF-induced, beta-lactamase ratio, 5 h; at 17.2 µM (top of the series) unless noted
Records with an inconclusive call do not appear. Active and inactive are the calls of the source. Calls come from the whole dose curve; as a rule, active = well fitted curve in either direction with a large enough effect (not every such curve was filed as active); inconclusive = small, poorly fitted or top-dose-only effect, or another doubt; inactive = flat fitted curve, though single readings scatter.
Property measured: activity change, negative = inhibition

[
  {
    "Compound": "CCOC(=O)c1[nH]c2ccc(F)cc2c1NC(=O)CCN1CCSCC1",
    "Reported measurement": "0.77% (inactive)"
  },
  {
    "Compound": "COc1ccc(-n2c(=O)c(CCc3ccccc3)nc3cnc(N4CCNCC4)nc32)cc1",
    "Reported measurement": "4.61% [at 7.69 µM] (inactive)"
  },
  {
    "Compound": "O=C(NCC(F)(F)F)Nc1nnc(C(F)(F)F)s1",
    "Reported measurement": "-9.88% (inactive)"
  },
  {
    "Compound": "Cn1c(Cn2cnc3ccccc32)nc2ccccc21",
    "Reported measurement": "-1.15% (inactive)"
  },
  {
    "Compound": "COc1ccccc1-n1c(=O)c2c3c(sc2n2c(SC)nnc12)CCC3",
    "Reported measurement": "6.29% (inactive)"
  },
  {
    "Compound": "CCCCc1nc(NCCN2CCOCC2)c(C#N)c2c1COC(C)(C)C2",
    "Reported measurement": "-15.7% (inactive)"
  },
  {
    "Compound": "CCN(CC)CCCN1C(=O)C(=O)/C(=C(/O)c2ccc3c(c2)CC(C)O3)C1c1ccncc1 (configuration not stated)",
    "Reported measurement": "0.667% (inactive)"
  },
  {
    "Compound": "COc1ccc(-c2oc3ncn4nc(COc5ccccc5)nc4c3c2-c2ccc(OC)cc2)cc1",
    "Reported measurement": "-11.5% (inactive)"
  },
  {
    "Compound": "COc1ccc(CSc2nnc3n(C)c(=O)c4c5c(sc4n23)CCCC5)cc1",
    "Reported measurement": "-2.6% (inactive)"
  },
  {
    "Compound": "COc1ccc(C2NC(=O)NC(O)(C(F)(F)F)C2C(=O)c2ccc(F)cc2)cc1 (configuration not stated)",
    "Reported measurement": "-8.86% (inactive)"
  },
  {
    "Compound": "CN(C)/C=C1\\N=C(c2ccc(Cl)cc2Cl)OC1=O",
    "Reported measurement": "-19.5% (inactive)"
  },
  {
    "Compound": "Nc1ccc2[nH]ncc2c1",
    "Reported measurement": "5.98% (inactive)"
  }
]

* * *

compounds and their reported activity, negative = inhibition
- Assay protocol: Stat Signaling Pathway (AID 446);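 note: ME-180 cervical cancer cells given 40 pM IL-6 alongside compound; SIE-controlled beta-lactamase reporter measured as 460/530 nm FRET emission ratio; % is set by controls: 0 for no effect and ±100 for the full control effect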
- Experimental setup: ME-180 SIE beta-lactamase reporter, IL-6 stimulated, 5 h; at 17.2 µM (top of the series) unless noted
- Method: NCGC Assay Overview: The IL-6/STAT signaling pathway was assayed in ME-180 cervical carcinoma cells by a beta-lactamase reporter gene controlled by a STAT Inducible Element (SIE). This reporter is induced by IL-6 at 40 pM AC50 and inhibited by the pan JAK inhibitor, 2-(1,1-Dimethylethyl)-9-fluoro-3,6-dihydro-7H-benz[h]-imidaz[4,5-f]isoquinolin-7-one, at approximately 10 nM AC50. Plated cells were incubated overnight and on the following day, stimulated with 40 pM IL-6 for 5 hrs. […]
Inconclusive results are not listed. Calls of active or inactive are those of the source. Calls come from the whole dose curve; as a rule, active = well fitted curve in either direction with a large enough effect (not every such curve was filed as active); inconclusive = small, poorly fitted or top-dose-only effect, or another doubt; inactive = flat fitted curve, though single readings scatter.
Property measured: activity, negative = inhibition

[
  {
    "Compound": "COc1ccc(C(=O)N2CCC(N3CCN(c4ccccc4)CC3)CC2)cc1OC",
    "Reported measurement": "-1.54% (inactive)"
  },
  {
    "Compound": "CC(=O)[C@@]1(O)CC[C@@H]2[C@@H]3CCC4=CC(=O)CC[C@@]4(C)[C@H]3CC[C@]21C",
    "Reported measurement": "-11.8% [at 38 µM] (inactive)"
  },
  {
    "Compound": "Cc1ccc2[nH]c3c(c2c1)CCCC3C(N)=O (stereo unspecified)",
    "Reported measurement": "8.83% (inactive)"
  },
  {
    "Compound": "c1ccc2c(c1)nc(CN1CCOCC1)n1c3ccccc3nc21",
    "Reported measurement": "14.3% (inactive)"
  },
  {
    "Compound": "COc1ccc(NC2CC(=O)N(C)C2=O)cc1 (stereo unspecified)",
    "Reported measurement": "11.9% (inactive)"
  },
  {
    "Compound": "COc1cccc(C2=CC(c3ccc(N(C)C)cc3)n3nnnc3N2)c1 (stereo unspecified)",
    "Reported measurement": "14.4% (inactive)"
  }
]

* * *

- Assay protocol: Stat Signaling Pathway (AID 446);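 note: ME-180 cervical cancer cells given 40 pM IL-6 alongside compound; SIE-controlled beta-lactamase reporter measured as 460/530 nm FRET emission ratio; % is set by controls: 0 for no effect and ±100 for the full control effect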
- Experimental setup: ME-180 (cervical carcinoma) SIE beta-lactamase reporter, IL-6 stimulated, 5 h; at 17.2 µM (top of the series) unless noted
Records with an inconclusive call do not appear.

[
  {
    "Compound": "C=C(C)CN(CC)CCC(=O)Nc1ccc(OC)cc1OC",
    "Measurement units": "%",
    "activity, negative = inhibition": 6.14
  },
  {
    "Compound": "CCC1(C)Cc2c(sc3c2c(=O)n(C)c2nnc(SCC(=O)c4ccc(Cl)cc4)n32)CO1 (centres undefined)",
    "Measurement units": "%",
    "activity, negative = inhibition": -5.38
  },
  {
    "Compound": "COC(=O)CSc1ncnc2c1sc1nc(-c3ccco3)c3c(c12)CC(C)(C)OC3",
    "Measurement units": "%",
    "activity, negative = inhibition": -10.8
  },
  {
    "Compound": "CSc1nc2sc3c(c2c(=O)[nH]1)CCC(C)C3 (centres undefined)",
    "Measurement units": "%",
    "activity, negative = inhibition": 8.48
  },
  {
    "Compound": "CC(C)Sc1nnc2n(CCc3ccccc3)c(=O)c3c4c(sc3n12)COC(C)(C)C4",
    "Measurement units": "%",
    "activity, negative = inhibition": -3.01
  },
  {
    "Compound": "CCC(=O)Nc1ccc(-c2nnc(-c3ccccc3)o2)cc1",
    "Measurement units": "%",
    "activity, negative = inhibition": -0.000551
  },
  {
    "Compound": "Cc1csc2nc(CSc3nc4ccccc4o3)cn12",
    "Measurement units": "%",
    "activity, negative = inhibition": 4.59
  },
  {
    "Compound": "CC(=O)c1c(OCC(=O)O)ccc2c(C)cc(=O)oc12",
    "Measurement units": "%",
    "activity, negative = inhibition": 13.1
  },
  {
    "Compound": "OC(CCCN1CCC(O)(c2ccc(Cl)cc2)CC1)c1ccc(F)cc1 (centres undefined)",
    "Measurement units": "%",
    "activity, negative = inhibition": 4.61
  }
]

* * *

compounds and their reported activity, negative = inhibition
- Assay protocol: qHTS profiling for inhibitors of Plasmodium falciparum proliferation (AID 504749);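 note: 0% = DMSO vehicle and full inhibition = artemisinin control; nearly all actives have a fitted effect of over 60% in size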
- Experimental setup: P. falciparum in erythrocytes, SYBR Green DNA, 72 h; at 28.7 µM (top of the series); parasite line A
Records with an inconclusive call do not appear.

[
  {
    "Compound": "NC(=O)c1ncn(C2OC(CO)C(O)C2O)c1N (configuration not stated)",
    "activity, negative = inhibition (%)": 3.47
  },
  {
    "Compound": "COC(=O)C1C2CC3c4[nH]c5cc(OC)ccc5c4CCN3CC2CC(OC)C1OC (configuration not stated)",
    "activity, negative = inhibition (%)": 2.01
  },
  {
    "Compound": "CC1(C)CC1C(=O)N/C(=C/CCCCSCC(N)C(=O)O)C(=O)O (configuration not stated)",
    "activity, negative = inhibition (%)": 9.99
  },
  {
    "Compound": "CC1OC(OCC2OC(Oc3c(-c4ccc(OCCO)c(OCCO)c4)oc4cc(OCCO)cc(O)c4c3=O)C(O)C(O)C2O)[C@@H](O)C(O)C1O (some centres not stated)",
    "activity, negative = inhibition (%)": -11
  },
  {
    "Compound": "CC1(C)OC[C@@H]2O[C@@]3(C(=O)O)OC(C)(C)O[C@@H]3[C@@H]2O1",
    "activity, negative = inhibition (%)": 1.64
  },
  {
    "Compound": "CC(CCC(=O)O)C1CCC2C3C(=O)C[C@@H]4CC(=O)CC[C@@]4(C)C3CC(=O)[C@]12C (some centres not stated)",
    "activity, negative = inhibition (%)": -3.83
  },
  {
    "Compound": "CC1OC(OC2C(O)CC(OC3C(O)CC(OC4CCC5(C)C(CCC6C5CCC5(C)C(C7=CC(=O)OC7)CCC65O)C4)OC3C)OC2C)CC(O)C1O (configuration not stated)",
    "activity, negative = inhibition (%)": 1.31
  },
  {
    "Compound": "COC(c1ccccc1)(c1ccccc1)C(Oc1nc(C)cc(C)n1)C(=O)O (configuration not stated)",
    "activity, negative = inhibition (%)": 2.94
  },
  {
    "Compound": "CC(C)CCCC(C)C1CC(=O)C2=C3CCC4CC(O)CCC4(C)C3CCC21C (configuration not stated)",
    "activity, negative = inhibition (%)": 4.35
  },
  {
    "Compound": "CC(C)(C)NC[C@H](O)CSc1nc(-c2ccc(C(N)=O)s2)cs1",
    "activity, negative = inhibition (%)": -8.78
  },
  {
    "Compound": "CCCCC(=O)OC1CCC2C3CCc4cc(O)ccc4C3CC[C@]12C (some centres not stated)",
    "activity, negative = inhibition (%)": -29.6
  },
  {
    "Compound": "Cc1cc(O)c2c(c1)OC1(C)CCC3C(C)(C)CCCC34COC2C14 (configuration not stated)",
    "activity, negative = inhibition (%)": -27.8
  },
  {
    "Compound": "CCCC(=O)O[C@]1(C(=O)COC(C)=O)CC[C@H]2C3C[C@H](F)C4=CC(=O)C=CC4(C)[C@@]3(F)[C@@H](O)CC21C (some centres not stated)",
    "activity, negative = inhibition (%)": -8.4
  },
  {
    "Compound": "CC(=O)N1CC(O)CC1C(=O)O (configuration not stated)",
    "activity, negative = inhibition (%)": -10.1
  },
  {
    "Compound": "O=[N+]([O-])O[C@H]1CO[C@H]2[C@@H]1OC[C@H]2O",
    "activity, negative = inhibition (%)": 14.3
  },
  {
    "Compound": "Cc1cn([C@H]2CC(F)[C@@H](CO)O2)c(=O)[nH]c1=O (some centres not stated)",
    "activity, negative = inhibition (%)": 6.21
  },
  {
    "Compound": "O=C1NC(=O)C2C3C=CC(C3)C12 (configuration not stated)",
    "activity, negative = inhibition (%)": 8.3
  }
]
